Values were extracted from patent US20060293307A1.

tested on: M. avium AIIMS; assay: MIC against MAC strains, agar dilution; assay type: cell-based, Mycobacterium avium; conditions: S. No. 04 Ma-4, M. avium AIIMS; Middle Brook 7H10 + OADC, 37° C., 14-21 days
reported metric: MIC (µg/mL)

{"columns": ["compound", "measured on", "reported metric", "unit annotation", "operator", "value observed"],
 "data": [
  ["CO[C@H]1/C=C/O[C@@]2(C)Oc3c(C)c(O)c4c(O)c(c(/C=N/N5CCN(C)CC5)c(O)c4c3C2=O)NC(=O)/C(C)=C\\C=C\\[C@H](C)[C@H](O)[C@@H](C)[C@@H](O)[C@@H](C)[C@H](OC(C)=O)[C@@H]1C [RIF]", "M. avium AIIMS", "MIC", "µg/mL", "=", 4.0],
  ["NNC(=O)c1ccncc1 [INH]", "M. avium AIIMS", "MIC", "µg/mL", ">", 32],
  ["C[C@@H]1CN(c2c(F)c(N)c3c(=O)c(C(=O)O)cn(C4CC4)c3c2F)C[C@H](C)N1 [SPAR]", "M. avium AIIMS", "MIC", "µg/mL", "=", 8.0],
  ["CC[C@H]1OC(=O)[C@H](C)[C@@H](O[C@H]2C[C@@](C)(OC)[C@@H](O)[C@H](C)O2)[C@H](C)[C@@H](O[C@@H]2O[C@H](C)C[C@H](N(C)C)[C@H]2O)[C@](C)(OC)C[C@@H](C)C(=O)[C@H](C)[C@@H](O)[C@]1(C)O [CLA]", "M. avium AIIMS", "MIC", "µg/mL", "=", 1.0],
  ["CCc1cc(C(N)=S)ccn1 [ETH]", "M. avium AIIMS", "MIC", "µg/mL", "=", 16]
]}

====

Documented MIC across a set of molecules
system: H. influenzae βIac; assay: MIC against Haemophilus strains; format: cell-based; details: s. No. 3, H. influenzae βIac

{"columns": ["molecule", "MIC"],
 "data": [
  ["O=C(NC[C@H]1CN(c2ccc(N3CCN(c4ccc([N+](=O)[O-])s4)CC3)c(F)c2)C(=O)O1)C(Cl)Cl", ">16 µg/mL"],
  ["CO/N=C(\\C(=O)N[C@@H]1C(=O)N2C(C(=O)O)=C(CSc3nc(=O)c(O)nn3C)CS[C@H]12)c1csc(N)n1 [Ceftriaxone, reference compound]", "<0.002 µg/mL"],
  ["C[C@H](Cl)C(=O)NCC1CN(c2ccc(N3CCN(c4ccc([N+](=O)[O-])s4)CC3)c(F)c2)C(=O)O1 (stereo partly drawn)", ">16 µg/mL"]
]}

====

tested on: E. coli 25922; assay: MIC, agar incorporation method; type: cell-based; settings: S. No. 25, E. coli 25922
Item-by-item account of MIC

{"columns": ["molecule", "MIC"],
 "data": [
  ["CC(=O)NC[C@H]1CN(c2ccc(N3CCN(c4cc(C(OC(C)=O)OC(C)=O)sc4[N+](=O)[O-])CC3)c(F)c2)C(=O)O1 [Compound No. 5]", ">8 µg/mL"],
  ["C[C@H](Cl)C(=O)NCC1CN(c2ccc(N3CCN(c4ccc([N+](=O)[O-])s4)CC3)c(F)c2)C(=O)O1 (stereo partly shown) [Compound No. 7]", ">8 µg/mL"],
  ["O=C(NC[C@H]1CN(c2ccc(N3CCN(c4ccc([N+](=O)[O-])s4)CC3)c(F)c2)C(=O)O1)C(Cl)Cl [compound 9]", ">8 µg/mL"],
  ["CC(=O)NC[C@H]1CN(c2ccc(N3CCN(c4ccc([N+](=O)[O-])s4)CC3)cc2)C(=O)O1 [Compound No. 6]", ">16 µg/mL"]
]}

====

system: S. pneumoniae AB-2; assay: MIC, agar incorporation method; assay type: cell-based, Streptococcus pneumoniae; details: S. No. 31, S. pneumoniae AB-2
reported metric: MIC (µg/mL)

{"columns": ["molecule", "value observed"],
 "data": [
  ["O=C(NC[C@H]1CN(c2ccc(N3CCN(c4ccc([N+](=O)[O-])s4)CC3)c(F)c2)C(=O)O1)C(Cl)Cl [compound 9]", 0.25],
  ["CC(=O)NC[C@H]1CN(c2ccc(N3CCN(c4cc(C(OC(C)=O)OC(C)=O)sc4[N+](=O)[O-])CC3)c(F)c2)C(=O)O1 [Compound No. 5]", 0.25],
  ["C[C@H](Cl)C(=O)NCC1CN(c2ccc(N3CCN(c4ccc([N+](=O)[O-])s4)CC3)c(F)c2)C(=O)O1 (stereo partly shown) [Compound No. 7]", 0.5],
  ["CC(=O)NC[C@H]1CN(c2ccc(N3CCN(c4ccc([N+](=O)[O-])s4)CC3)cc2)C(=O)O1 [Compound No. 6]", 0.25]
]}

====

Let's look at some compounds and their measured MIC.
system: S. epidermidis 823; assay: MIC, agar incorporation method; assay type: cell-based, Staphylococcus epidermidis; settings: Staphylococcus epidermidis, 823

{"columns": ["compound", "operator", "MIC (µg/mL)"],
 "data": [
  ["CN[C@H](CC(C)C)C(=O)N[C@H]1C(=O)N[C@@H](CC(N)=O)C(=O)N[C@H]2C(=O)N[C@H]3C(=O)N[C@H](C(=O)N[C@H](C(=O)O)c4cc(O)cc(O)c4-c4cc3ccc4O)[C@H](O)c3ccc(c(Cl)c3)Oc3cc2cc(c3O[C@@H]2O[C@H](CO)[C@@H](O)[C@H](O)[C@H]2O[C@H]2C[C@](C)(N)[C@H](O)[C@H](C)O2)Oc2ccc(cc2Cl)[C@H]1O [Vancomycin, reference compound]", "=", 2],
  ["CC(=O)NC[C@H]1CN(c2ccc(N3CCOCC3)c(F)c2)C(=O)O1 [Linezolid, reference compound]", "<", 0.5],
  ["O=C(NC[C@H]1CN(c2ccc(N3CCN(c4ccc([N+](=O)[O-])s4)CC3)c(F)c2)C(=O)O1)C(F)F", "=", 0.25],
  ["CC(=O)NC[C@H]1CN(c2ccc(N3CCN(c4ccc([N+](=O)[O-])s4)CC3)c(F)c2)C(=O)O1", "=", 0.125]
]}

====

system: M. intracellulare F21/12; test: MIC against MAC strains, agar dilution; assay type: cell-based; conditions: S. No. 08 Mi-3, M. intracellulare F21/12; Middle Brook 7H10 + OADC, 37° C., 14-21 days
reported metric: MIC (µg/mL)

{"columns": ["chemical string", "measured on", "value observed"],
 "data": [
  ["CCc1cc(C(N)=S)ccn1", "M. intracellulare F21/12", 8.0],
  ["C[C@@H]1CN(c2c(F)c(N)c3c(=O)c(C(=O)O)cn(C4CC4)c3c2F)C[C@H](C)N1", "M. intracellulare F21/12", 0.125],
  ["NNC(=O)c1ccncc1", "M. intracellulare F21/12", 32],
  ["CO[C@H]1/C=C/O[C@@]2(C)Oc3c(C)c(O)c4c(O)c(c(/C=N/N5CCN(C)CC5)c(O)c4c3C2=O)NC(=O)/C(C)=C\\C=C\\[C@H](C)[C@H](O)[C@@H](C)[C@@H](O)[C@@H](C)[C@H](OC(C)=O)[C@@H]1C", "M. intracellulare F21/12", 4.0],
  ["CC[C@H]1OC(=O)[C@H](C)[C@@H](O[C@H]2C[C@@](C)(OC)[C@@H](O)[C@H](C)O2)[C@H](C)[C@@H](O[C@@H]2O[C@H](C)C[C@H](N(C)C)[C@H]2O)[C@](C)(OC)C[C@@H](C)C(=O)[C@H](C)[C@@H](O)[C@]1(C)O", "M. intracellulare F21/12", 1.0]
]}

====

Recorded MIC values for a group of molecules are listed next.
system: Moraxella cata. M2; assay: MIC, agar incorporation method; format: cell-based; conditions: S. No. 59, Moraxella cata. M2; read-out: MIC
reported metric: MIC (µg/mL)

{"columns": ["chemical string", "operator", "value observed"],
 "data": [
  ["CC(=O)NC[C@H]1CN(c2ccc(N3CCN(c4ccc(C=O)s4)CC3)c(F)c2)C(=O)O1", "=", 0.5],
  ["CC(=O)NC[C@H]1CN(c2ccc(N3CCN(c4ccc(C=O)o4)CC3)c(F)c2)C(=O)O1", "=", 1],
  ["CC(=O)NC[C@H]1CN(c2ccc(N3CCN(c4ccc([N+](=O)[O-])o4)CC3)c(F)c2)C(=O)O1", ">", 16],
  ["CC(=O)NC[C@H]1CN(c2ccc(N3CCN(c4ccc([N+](=O)[O-])s4)CC3)c(F)c2)C(=O)O1", "=", 0.25]
]}

====

Overview of reported MIC across a group of compounds:
system: S. epidermidis (MRSE) 23760; test: MIC, agar incorporation method; type: cell-based, Staphylococcus epidermidis; conditions: Staphylococcus epidermidis, MRSE

{"columns": ["compound", "MIC [µg/mL]"],
 "data": [
  ["CC(=O)NC[C@H]1CN(c2ccc(N3CCOCC3)c(F)c2)C(=O)O1 [Linezolid, reference compound]", 1],
  ["O=C(NC[C@H]1CN(c2ccc(N3CCN(c4ccc([N+](=O)[O-])s4)CC3)c(F)c2)C(=O)O1)C(F)F [Compound No. 8]", 0.25],
  ["CN[C@H](CC(C)C)C(=O)N[C@H]1C(=O)N[C@@H](CC(N)=O)C(=O)N[C@H]2C(=O)N[C@H]3C(=O)N[C@H](C(=O)N[C@H](C(=O)O)c4cc(O)cc(O)c4-c4cc3ccc4O)[C@H](O)c3ccc(c(Cl)c3)Oc3cc2cc(c3O[C@@H]2O[C@H](CO)[C@@H](O)[C@H](O)[C@H]2O[C@H]2C[C@](C)(N)[C@H](O)[C@H](C)O2)Oc2ccc(cc2Cl)[C@H]1O [Vancomycin, reference compound]", 2],
  ["CC(=O)NC[C@H]1CN(c2ccc(N3CCN(c4ccc([N+](=O)[O-])s4)CC3)c(F)c2)C(=O)O1 [Compound No. 1]", 0.125]
]}
